Molecular target: recombinant human PDE4
Construct: PDE4 IC50; other: human recombinant PDE4
Assay: PDE4 inhibition, charcoal separation [32P]cAMP phosphodiesterase assay
Assay type: biochemical
Reported property: IC50 (nM)
# output: bare number, implied unit nM

CCNC[C@]1(C)CN(C(=O)OC)C[C@H]1c1ccc(OC)c(OC2Cc3ccccc3C2)c1 [Example 28]
591
COc1ccc(C2CN(Cc3ccccc3)C[C@@]2(C)C(C)N)cc1OC1CCCC1 (stereo partly drawn) [Example 20]
22
COc1ccc([C@@H]2CN(Cc3ccccc3)C[C@@]2(C)C(C)NC(=O)c2ccccc2)cc1OC1CCCC1 (stereo partly drawn) [Example 11]
27100

Give recorded IC50 with recombinant human PDE4 for the following compound: COc1ccc([C@@H]2CN(Cc3ccccc3)C[C@@]2(C)C(C)N)cc1OC1CCCC1 (single isomer, unassigned) [Example 9] 57.5

Another compound: COc1ccc(C2CN(Cc3ccccc3)C[C@@]2(C)C(C)NS(=O)(=O)c2ccccc2)cc1OC1CCCC1 (stereo partly drawn) [Example 16] 9080

Another compound: COC(=O)N1C[C@@H](c2ccc(OC)c(OC3CCCC3)c2)[C@](C)(CNC(=O)OC(C)(C)C)C1 [Example 21] 2200

Another compound: COC(=O)N1C[C@@H](c2ccc(OC)c(OC3Cc4ccccc4C3)c2)[C@](C)(CN)C1 [Example 24] 22.9

Another compound: COC(=O)N1C[C@@H](c2ccc(OC)c(OC3CCCC3)c2)[C@](C)(CNCc2ccccc2)C1 [Example 1] 1400

Another compound: COC(=O)N1C[C@@H](c2ccc(OC)c(OCC3CC3)c2)[C@](C)(CN)C1 [Example 25] 53
